Test system: Aspergillus fumigatus ATCC 13073
Experiment: In vitro susceptibility, microdilution broth MIC, A. fumigatus
Format: cell-based
Settings: ATCC13073, 48 h, Table 1a, Sabouraud's broth, 30° C., read-out: MIC A. fumigatus
Reported Metric: MIC (µg/mL)

Solved cases (2 shown):
O=CC1=CC=C(C=O)SS1 [Dithiin E, 3,6-Diformyl-1,2-dithiin]	8
OCC1=CC=C(CO)SS1 [Dithiin A, 3,6-Bis(hydroxymethyl)-1,2-dithiin]	16

I = COCOCC1=CC=C(COCOC)SS1 [Dithiin D]
II = CC(=O)OCC1=CC=C(COC(C)=O)SS1 [Dithiin B, 3,6-Bis(acetyloxymethyl)-1,2-dithiin]
In: Dear colleague, could you let me know whether I or II has the lower recorded MIC? Thanks. I would appreciate it if you answered with the label of your choice.
Out: II

---

Test: Systemic toxicology test in ICR mice, intraperitoneal
Assay type: in vivo
Details: mouse, in vivo, ip, three consecutive days, 14 day observation, read-out: LD50
Reported Metric: LD50 at 336 h (mg/kg)
Your answer is read as mg/kg, so omit the unit and give the number.

In: Could you tell me which LD50 at 336 h is on file for "C=CC#CC#CC1=CC=C(C#CC)SS1" ?
Out: 0.6

---

System: Aspergillus fumigatus ATCC 13073
Assay: In vitro susceptibility, microdilution broth MIC, A. fumigatus
Format: cell-based
Settings: ATCC13073, 48 h, Table 1b, Sabouraud's broth, 30° C., read-out: MIC A. fumigatus
Reported Metric: MIC (µg/mL)

Solved cases (3 shown):
CC(=O)OCC1=CC=C(COC(C)=O)SS1	0.2
CCC(=O)OCC1=CC=C(COC(=O)CC)SS1	3.1
OCC1=CC=C(CO)SS1 [Dithiin A, 3,6-Bis(hydroxymethyl)-1,2-dithiin]	6.3

P = O=C(OCC1=CC=C(COC(=O)C2CC2)SS1)C1CC1
Q = O=C(OCC1=CC=C(CO)SS1)C1CC1
In: Dear colleague, could you let me know whether P or Q has the lower recorded MIC? Thanks. I would appreciate it if you answered with the label of your choice.
Out: Q
